Reference source: ChEMBL document CHEMBL1158836

Tested on: HEp-2
Test: Cytotoxicity against human Hep2 cells in log-phase after 48 hrs by MTT assay
Format: functional, cell-based
Details: HEp-2, 48 h
Starred links: 1 amine or outer side, 2 acyl side, 3 side chain; linkers in the order of their positions; H or OH if unused. Positions of bridges follow the written chain, without caps; N, C: chain ends. Non-standard residues stand in square brackets, D forms with d. Residues, ends and D or L forms follow the SMILES beside them. Chains are numbered I, II in the order given. Actinocin(1to9) = Cc1c2oc3c(C)ccc(C(=O)[*:2])c3nc-2c(C(=O)[*:1])c(N)c1=O; NMeV = CN[C@H](C(=O)O)C(C)C; Sar = CNCC(=O)O
// IC50 lookup, one value per entry
Lab book: enter the figure in µM, no units written.

Cc1c2oc3c(C)ccc(C(=O)N[C@@H]4C(=O)N[C@H](C(C)C)C(=O)N5CCC[C@H]5C(=O)N(C)CC(=O)N(C)[C@@H](C(C)C)C(=O)O[C@@H]4C)c3nc-2c(C(=O)N[C@@H]2C(=O)N[C@H](C(C)C)C(=O)N3CCC[C@H]3C(=O)N(C)CC(=O)N(C)[C@@H](C(C)C)C(=O)O[C@@H]2C)c(N)c1=O [DACTINOMYCIN] (I: T[dV]P[Sar][NMeV] / II: T[dV]P[Sar][NMeV]; ester I:1-I:C, II:1-II:C; linker I:N-II:N via Actinocin(1to9))    0.006
C=C1C[C@H](O)[C@H](Br)C(C)(C)[C@@]12CCC(C)=C(Cl)C2 [ELATOL]    2

Task: Reported IC50 for C=C1C[C@H](OC(C)=O)[C@H](Br)C(C)(C)[C@@]12CCC(C)=C(Cl)C2 [ACETYLELATOL] : what is it?
Output: 22.4

====

Tested on: HEp-2
Assay: Cytotoxicity against human Hep2 cells in log-phase after 48 hrs by MTT assay
Assay type: functional, cell-based
Conditions: HEp-2, 48 h
OUTCOME_MEASURE: IC50

CC(=O)O[C@@H]1C[C@@H](Br)C(C)(C)O[C@]1(C)[C@H]1CC[C@](C)(Cl)[C@@H](Br)C1    > 42 µM
CC1(C)O[C@](C)([C@H]2CC[C@](C)(Cl)[C@@H](Br)C2)[C@H](O)C[C@H]1Br    > 46 µM
C=C1C[C@H](OC(C)=O)[C@H](Br)C(C)(C)[C@]12CC=C(C)CC2    > 58 µM

Task: Given the compound C=C1C[C@H](O)[C@H](Br)C(C)(C)[C@]12CC=C(C)CC2 , what is its reported IC50?
Output: > 67 µM
